Source listed as patent US20210145976A1.

- TGT: human serum albumin (human) (UniProt P02768)
- Sequence (P02768 25-609 limits assumed): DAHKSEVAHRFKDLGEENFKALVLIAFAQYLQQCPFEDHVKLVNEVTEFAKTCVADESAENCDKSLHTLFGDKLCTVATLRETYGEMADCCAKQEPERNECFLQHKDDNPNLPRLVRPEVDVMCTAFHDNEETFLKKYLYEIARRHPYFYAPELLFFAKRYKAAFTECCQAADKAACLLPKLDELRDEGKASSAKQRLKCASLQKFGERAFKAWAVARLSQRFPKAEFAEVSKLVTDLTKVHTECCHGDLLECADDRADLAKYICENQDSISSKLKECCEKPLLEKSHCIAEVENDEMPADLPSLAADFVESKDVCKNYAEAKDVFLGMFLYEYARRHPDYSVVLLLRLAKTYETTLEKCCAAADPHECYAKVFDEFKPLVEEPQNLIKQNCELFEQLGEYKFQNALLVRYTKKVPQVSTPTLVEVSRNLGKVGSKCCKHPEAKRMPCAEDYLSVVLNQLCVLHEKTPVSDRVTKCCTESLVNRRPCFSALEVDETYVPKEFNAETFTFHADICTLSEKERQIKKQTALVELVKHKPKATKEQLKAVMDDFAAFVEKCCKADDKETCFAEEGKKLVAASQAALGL
- PROTOCOL_TEXT: screening ELISA
The reader will find reported HSA values listed item by item below.
REPORTED_ENDPOINT: HSA

BINDER: SEQ ID NO 125 (designed binder) MLPAPKNLVVSRVTEDSARLSWTAPDAAFDSFVIEYFEFVGEGEAIVLTVPGSERSYDLTGLKPGTEYDVGIYGVKGGSLSSPLSAIFTT
REPORTED_ENDPOINT: HSA
MEAS_VALUE: 1050
--
BINDER: SEQ ID NO 161 (designed binder) MLPAPKNLVVSRVTEDSARLSWTAPDAAFDSFTIRYWEELPTGEAIVLTVPGSERSYDLTGLKPGTEYTVEIFGVKGGYLSRPLSAISTT
REPORTED_ENDPOINT: HSA
MEAS_VALUE: 5050
